target: PPARδ receptor (GST-hPPARδ LBD) (Homo sapiens, UniProt Q03181); construct: GST-hPPARδ LBD (amino acids 139-442); test: PPARδ receptor functional binding assay (CARLA, TR-FRET); conditions: SRC-1 peptide recruitment
Sequence (Q03181 139-441 limits assumed): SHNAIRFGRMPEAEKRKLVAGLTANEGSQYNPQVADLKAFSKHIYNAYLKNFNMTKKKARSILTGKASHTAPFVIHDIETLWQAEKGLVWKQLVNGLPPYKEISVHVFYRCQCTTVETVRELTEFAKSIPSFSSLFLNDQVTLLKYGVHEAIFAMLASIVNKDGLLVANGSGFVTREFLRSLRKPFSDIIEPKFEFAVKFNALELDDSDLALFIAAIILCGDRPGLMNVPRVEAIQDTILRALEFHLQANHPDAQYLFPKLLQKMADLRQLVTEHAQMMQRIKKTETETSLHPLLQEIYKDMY
Sequence (Q15788 676-700 partner limits assumed): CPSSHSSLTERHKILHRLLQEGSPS

item-smiles	EC50
Cc1cccc(NS(=O)(=O)c2ccc(OCc3nc(-c4ccccc4)oc3C)cc2)c1C(=O)O	~3.5 µM

* * *

molecular target: PPARγ receptor (GST-hPPARγ LBD) (Homo sapiens, UniProt P37231); construct: GST-hPPARγ LBD (amino acids 175-476); made in house; host or cells: E. coli BL21 (DE3); assay: PPARγ receptor functional binding assay (CARLA, TR-FRET); format: biochemical; settings: SRC-1 peptide recruitment
Sequence (P37231 203-504): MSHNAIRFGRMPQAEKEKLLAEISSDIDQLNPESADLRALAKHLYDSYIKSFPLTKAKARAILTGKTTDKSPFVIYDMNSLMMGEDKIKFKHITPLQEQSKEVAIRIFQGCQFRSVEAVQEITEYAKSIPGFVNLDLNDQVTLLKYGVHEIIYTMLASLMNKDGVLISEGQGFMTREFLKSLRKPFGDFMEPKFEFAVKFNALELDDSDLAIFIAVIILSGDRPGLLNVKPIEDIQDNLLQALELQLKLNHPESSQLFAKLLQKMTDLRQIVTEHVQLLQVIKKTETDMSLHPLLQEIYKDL
pEC50: −log10 of the molar value.

molecule	pEC50
Cc1cccc(NS(=O)(=O)c2ccc(OCc3nc(-c4ccccc4)oc3C)cc2)c1C(=O)O [Example 1]	~8.30

* * *

Let's look at some molecules and their measured melting point.

molecule	melting point
Cc1cccc(NS(=O)(=O)c2ccc(OCc3nc(-c4ccccc4)oc3C)cc2)c1C(=O)O [Example 1]	167 to 170 °C
COc1cc(OC)c(C(=O)O)c(OCc2ccc(OCCc3nc(-c4ccccc4)oc3C)cc2)c1 [Compd 21-1]	58 to 60 °C
Cc1oc(-c2ccccc2)nc1COc1ccc(S(=O)(=O)Nc2ccc(F)cc2C(=O)O)cc1 [Compd 4-14]	213 to 215 °C
CCCOc1cc(C)c(C(=O)O)c(OCc2ccc(OCc3nc(-c4ccccc4)oc3C)cc2)c1 [Compd 21-3]	182 to 183 °C
Cc1oc(-c2ccccc2)nc1COc1ccc(S(=O)(=O)Nc2ccc(Cl)cc2C(=O)O)cc1 [Compd 4-15]	207 to 208 °C
Cc1oc(-c2ccccc2)nc1CCOc1ccc(S(=O)(=O)Nc2cc(Cl)ccc2C(=O)O)cc1 [Example 2]	223 to 225 °C
COc1cc(OC)c(C(=O)O)c(OCc2ccc(OCc3nc(-c4ccccc4)oc3C)cc2)c1 [Compd 21-2]	182 to 183 °C
Cc1oc(-c2ccccc2)nc1COc1ccc(COc2cccc(F)c2C(=O)O)cc1 [Compd 21-6]	167 to 168 °C

* * *

item-smiles	melting point
COc1ccc(NS(=O)(=O)c2ccc(OCc3nc(-c4ccccc4)oc3C)cc2)c(C(=O)O)c1	190 to 194 °C
Cc1oc(-c2ccccc2)nc1COc1ccc(S(=O)(=O)Nc2cccc(C(F)(F)F)c2C(=O)O)cc1	197 to 198 °C
O=C(NCc1ccc(C(F)(F)F)cc1)c1ccc(S(=O)(=O)Nc2ccccc2C(=O)O)cc1	330 to 335 °C
Cc1oc(-c2ccccc2)nc1COc1cccc(COc2cc(Cl)ccc2C(=O)O)c1	168 °C
Cc1oc(-c2ccc(F)cc2)nc1COc1ccc(S(=O)(=O)Nc2cc(Cl)ccc2C(=O)O)cc1	223 to 225 °C
COc1cccc(OCc2ccc(OCc3nc(-c4ccccc4)oc3C)cc2)c1C(=O)O	180 to 181 °C

* * *

recorded-endpoint: melting point

molecule	recorded-result
Cc1ccc(C(=O)O)c(NS(=O)(=O)c2ccc(OCc3nc(-c4ccccc4)oc3C)cc2)c1 [Compd 4-12]	207 to 208 °C
CCCOc1ccc(C(=O)O)c(OCc2ccc(OCCc3nc(-c4ccccc4)oc3C)cc2)c1 [Example 15]	108 to 109 °C
Cc1oc(-c2ccccc2)nc1COc1ccc(S(=O)(=O)Nc2cc(F)ccc2C(=O)O)cc1 [Compd 4-10]	212 to 214 °C
Cc1oc(-c2ccccc2)nc1CCOc1ccc(COc2cc(Cl)ccc2C(=O)O)cc1 [Compd 21-12]	148 to 149 °C
COc1ccc(NS(=O)(=O)c2ccc(OCCc3nc(-c4ccccc4)oc3C)cc2)c(C(=O)O)c1OC [Compd 4-20]	59 to 60 °C
Cc1oc(-c2ccccc2)nc1CCOc1ccc(COc2cccc(F)c2C(=O)O)cc1 [Compd 21-8]	142 to 143 °C
Cc1oc(-c2ccccc2)nc1CCOc1ccc(COc2cc3ccccc3cc2C(=O)O)cc1 [Example 14]	135 to 137 °C
Cc1cc(C)c(NS(=O)(=O)c2ccc(OCc3nc(-c4ccccc4)oc3C)cc2)c(C(=O)O)c1 [Compd 4-25]	165 to 166 °C
Cc1oc(-c2ccccc2)nc1CCOc1ccc(S(=O)(=O)Nc2ccccc2C(=O)O)cc1 [Compd 4-21]	136 to 138 °C
Cc1oc(-c2ccc(C(F)(F)F)cc2)nc1COc1ccc(S(=O)(=O)Nc2cc(Cl)ccc2C(=O)O)cc1 [Compd 4-3]	191 to 193 °C
